Molecular target: Aβ1-40 peptide monomer (Homo sapiens, UniProt P05067)
Sequence (P05067 672-711 limits assumed): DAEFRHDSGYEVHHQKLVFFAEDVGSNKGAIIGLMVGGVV
Type: biochemical
Conditions: 50 μM test compound, 20 μM Aβ1-40 monomer, 4 μM pre-formed sonicated Aβ1-40 fibrils, pH 7.4, two hours at 37° C., HPLC
Protocol: The activity of the disclosed compounds is assessed according to the procedure reported below. An Aβ1-40 peptide monomer stock solution is prepared by dissolving the peptide in dimethylsulfoxide at a concentration of 33.33 mg/mL. The stock solution is further diluted 1 to 11.5 with dimethylsulfoxide. […] The suspension is then centrifuged at 15000 rpm for 15 minutes at +4° C., the supernatant is collected and the Aβ1 -40 monomer is quantitated by HPLC. […]
Task for the reader: assign each of the following molecules its reported % inhibition (of the aggregation of Aβ1-40 monomer).
Form field: result (number plus unit)

Asked: Name the recorded % inhibition (of the aggregation of Aβ1-40 monomer) for CON=C1CC2c3c(O)c4c(c(O)c3CC1(C)N2Cc1ccncc1)C(=O)c1cccc(OC)c1C4=O (stereo not drawn) .
Given back: 31.7%

Asked: Name the recorded % inhibition (of the aggregation of Aβ1-40 monomer) for COc1ccc(CN2C3CC(=NO)C2(C)Cc2c(O)c4c(c(O)c23)C(=O)c2c(OC)cccc2C4=O)cc1OC (stereo not drawn) .
Given back: 22.9%

Asked: Name the recorded % inhibition (of the aggregation of Aβ1-40 monomer) for C=CCN1C2CC(=NOC)C1(C)Cc1c(O)c3c(c(O)c12)C(=O)c1c(OC)cccc1C3=O (stereo not drawn) .
Given back: 36.0%

Asked: Name the recorded % inhibition (of the aggregation of Aβ1-40 monomer) for CON=C1CC2c3c(O)c4c(c(O)c3CC1(C)N2Cc1ccc(OC)c(OC)c1)C(=O)c1cccc(OC)c1C4=O (stereo not drawn) .
Given back: 26.2%

Asked: Name the recorded % inhibition (of the aggregation of Aβ1-40 monomer) for COc1cccc2c1C(=O)c1c(O)c3c(c(O)c1C2=O)CC1(C)C(=NOCc2ccccc2)CC3N1Cc1ccncc1 (stereo not drawn) .
Given back: 24.2%

Asked: Name the recorded % inhibition (of the aggregation of Aβ1-40 monomer) for CCON=C1CC2NC1(C)Cc1c(O)c3c(c(O)c12)C(=O)c1c(OC)cccc1C3=O (single isomer, unassigned) .
Given back: 54.2%
